Sourced from ChEMBL document CHEMBL1201862

- System: KM12
- Run Description: NCI tumour cell line growth inhibition, 48 h
The source made the active and inactive calls. No stated cut-off is given here; in the data, active = GI50 up to about 1.1 µM and inactive = higher.
# valid calls are Y (active), N (inactive); nothing else

O=C(Nc1ccc(Cl)cc1)Oc1ccc(C(=S)Nc2ccc(Br)cc2)cc1
N
CCCCCCCCCCCCN(CC(O)C(O)C(OC1OC(CO)C(O)C(O)C1O)C(O)CO)C(=O)CCCCCCCCCCC (configuration not stated)
N
O=C1C(Cl)=C(NCCc2ccc(O)cc2)C(=O)c2c(O)ccc(O)c21
N
CCOC(=O)C1(F)S(=O)(=O)OCCOS1(=O)=O
N
COc1ccc2sc(-n3nc4ccccc4c3Nc3nc4ccc(OC)cc4s3)nc2c1
N

Given CC(=O)N/C(=C\c1cccc([N+](=O)[O-])c1)c1nc2ccc3c(c2[nH]1)C(=O)c1ccccc1C3=O , state the outcome it received in this test. N

Assay result, entry CCSCCCSCCSCC — outcome? N

Per the records of this test, what outcome belongs to Cn1cnc([N+](=O)[O-])c1Sc1nncc2[nH]cnc12 ? N

Give the logged outcome of this assay for the following molecule: Cc1cccc(Cl)c1NCC(O)CN1CCN(C)CC1 (configuration not stated) N

Outcome? CN(C)/C=C/c1c2c(nc3ccccc13)C(=O)c1cccnc1C2=O Y

Per the assay record, what outcome was assigned to CCOc1ccc2nc(NC(=O)c3c/c(=N\NC(=O)C[N+](C)(C)C)c4ccc(O)cc4o3)sc2c1 ? N

What is the recorded call for this molecule in the test? O=C(O)c1ccccc1Sc1ccccc1[N+](=O)[O-] N

Assay result, entry c1ccc(C(CCN2CC3CCC(CC3)C2)c2ccccc2)cc1 — outcome? N

Outcome? CCC12CCCN(Cc3ccccc3)C1c1c(n(C)c3ccccc13)C(CO)C2 (configuration not stated) N

// outcome(item) with item = COc1cccc(NC(=O)CC(=O)N2N=C(n3ccc4ccccc43)CC2c2ccccc2)c1 (configuration not stated) N

How did this test come out for CCOP(=O)(OCC)/C(C#N)=C/c1ccnc2ccccc12 ? N

Which outcome was assigned to OC(Cc1cnnc2ccccc12)C(Cl)(Cl)Cl (configuration not stated) in this test? N

====

- Test system: NCI/ADR-RES
- Run Description: NCI tumour cell line growth inhibition, 48 h
The source made the active and inactive calls. Cut-off read from the data, not from the text of the source: active = GI50 up to about 1.1 µM and inactive = higher.
Listed next: entries and their corresponding GI50.

# example entries with known answers
NC(Cc1ccc(N(CCCl)CCCl)cc1)C(=O)NC(CCC(=O)O)C(=O)O (stereo not drawn)
> 100 µM (inactive)
Cc1cn(Cc2ccccc2CCl)c(=O)[nH]c1=O
18.2 µM (inactive)

# evaluate next
Using the record for COC(=O)C1(C(=O)OC)CC2=C(S(=O)(=O)c3ccccc3)C[C@@H](C#N)[C@H]2C1 , report its GI50. > 100 µM (inactive)

====

The entries below come with measured GI50 values attached.
- Test system: A498
- Run Description: NCI tumour cell line growth inhibition, 48 h
Calls of active or inactive are those of the source. Cut-off read from the data, not from the text of the source: active = GI50 up to about 1.1 µM and inactive = higher.

CNC(=S)NC(=S)N(C)C
> 100 µM (inactive)
c1ccc(C(c2ccccc2)c2cccnc2)cc1
> 100 µM (inactive)

Under A498: GI50 value of Nc1nc(N)c2cc(-c3ccccc3)cnc2n1 ? 14.9 µM (inactive)

====

- System: OVCAR-8
- Run Description: NCI tumour cell line growth inhibition, 48 h
Active and inactive are the calls of the source. Cut-off read from the data, not from the text of the source: active = GI50 up to about 1.1 µM and inactive = higher.
Overview of reported GI50 across a group of molecules:

Previously resolved entries follow.
COc1cc2c(c(OC)c1)C(=O)C(=O)C(CC1(C)OCCCO1)=C2
11.5 µM (inactive)
N#Cc1cccc(/C=N/N/C(N)=N/O)c1
78.3 µM (inactive)

Attention now shifts to the item below.
Would you kindly share the measured GI50 for CC(C)=Nn1cnc2c1=NC(C)(C)NC=2C(N)=O ? > 10 µM (inactive)
